# System: OVCAR-5 ovarian
# run_description: NCI tumour cell line growth inhibition, 48 h
measured_metric: GI50

C=C1CC[C@@H]2[C@](C)(COC(C)=O)[C@H](OC(C)=O)CC[C@@]2(C)[C@@H]1CC(Nc1ccc(S(=O)(=O)Nc2cc(C)on2)cc1)C1=CCOC1=O (stereo not given in full)	2.16 µM

q: Query: GI50; subject: c1ccc(Nc2nc(-c3ccccn3)cs2)nc1
a: 2.35 µM

q: Same again, this time with Clc1nc(Cl)c2c3c(sc2n1)CCCC3
a: > 100 µM

q: Same again, this time with O=[N+]([O-])c1ccc(Sc2nc(Cl)nc(NC3CCCC3)n2)cc1
a: > 10 µM

----------
# Tested on: CAKI-1 renal
# run_description: NCI tumour cell line growth inhibition, 48 h
measured_metric: GI50

q: Query: GI50; subject: COc1cc(/C=C2\Oc3cc(OCCCN4CCCC4)ccc3C2=O)cc(OC)c1
a: 3.54 µM

q: Same again, this time with COC(=O)c1ccc2c(c1)C(=O)c1c-2n(C)c(=O)c2cc(OC)c(OC)cc12
a: > 50 µM

q: Same again, this time with CCOC(=O)c1ccc2c(c1)nc(/C=C/c1ccc(Cl)cc1)n2-c1cc(C(C)(C)C)[nH]n1
a: 5.04 µM

q: Same again, this time with CC(=O)c1ccc(Nc2nc(Nc3ccc(F)cc3)nc(Nc3ccc(F)cc3)n2)cc1
a: 9.02 µM

q: Same again, this time with C[N+](C)(CCCCCC[N+](C)(C)CCCN1C(=O)c2cc3ccccc3cc2C1=O)CCCN1C(=O)c2cc3ccccc3cc2C1=O
a: > 37.5 µM

----------
The molecules listed here are annotated with their TGI.
# Tested on: HOP-62 NSCLC
# run_description: NCI tumour cell line growth inhibition, 48 h

COc1ccc(-c2nc(Nc3ccc(-c4nc5ccccc5[nH]4)cc3)nc(N3CCOCC3)n2)cc1	5.3 µM

q: Query: TGI; subject: COC(=O)N/N=C(\C(=O)Nc1cccc([N+](=O)[O-])c1)c1nc2ccc([N+](=O)[O-])cc2[nH]c1=O
a: 66.5 µM

q: Same again, this time with COC(=O)C1=CC2CC1C(S(=O)(=O)c1ccccc1)C2S(=O)(=O)c1ccccc1 (centres undefined)
a: > 100 µM

q: Same again, this time with COc1cc2c(cc1OC)CN1CCCc3cc(OC)c(OC)cc3C1C2 (centres undefined)
a: > 100 µM

q: Same again, this time with CSCC[C@H](NC(=O)[C@H](CC(C)C)NC(=O)[C@@H](Cc1ccccc1)NC(=O)CNC(=O)[C@@H](NC(=O)[C@H](C)NC(=O)[C@H](Cc1c[nH]c2ccccc12)NC(=O)[C@H](CCC(N)=O)NC(=O)[C@H](N)CC(N)=O)C(C)C)C(N)=O
a: > 12.5 µM

q: Same again, this time with O=c1cc(N2CCCC2)[nH]c(=O)n1-c1ccc(F)cc1
a: > 100 µM

----------
# Test system: CAKI-1 renal
# run_description: NCI tumour cell line growth inhibition, 48 h
measured_metric: TGI (µM)
Write the number in µM without appending the unit.

CC[C@@H](C(=O)[C@H](C)[C@H](O)[C@@H](C)[C@H]1O[C@H]([C@@H](CC)C(=O)O)CC[C@H]1C)C1O[C@]2(C=C[C@@H](O)[C@]3(CC[C@@](C)([C@H]4CC[C@](O)(CC)[C@H](C)O4)O3)O2)[C@H](C)C[C@@H]1C (some centres undefined)	13.9

We now examine a further molecule.
q: Lab note: need TGI for S=C(N/N=C/c1ccccn1)Nc1ccc(Cl)cc1 on CAKI-1 renal, anyone have it?
a: 30.5
